Target: HDAC8 (Homo sapiens, UniProt Q9BY41)
Sequence (Q9BY41 whole entry, species assumed): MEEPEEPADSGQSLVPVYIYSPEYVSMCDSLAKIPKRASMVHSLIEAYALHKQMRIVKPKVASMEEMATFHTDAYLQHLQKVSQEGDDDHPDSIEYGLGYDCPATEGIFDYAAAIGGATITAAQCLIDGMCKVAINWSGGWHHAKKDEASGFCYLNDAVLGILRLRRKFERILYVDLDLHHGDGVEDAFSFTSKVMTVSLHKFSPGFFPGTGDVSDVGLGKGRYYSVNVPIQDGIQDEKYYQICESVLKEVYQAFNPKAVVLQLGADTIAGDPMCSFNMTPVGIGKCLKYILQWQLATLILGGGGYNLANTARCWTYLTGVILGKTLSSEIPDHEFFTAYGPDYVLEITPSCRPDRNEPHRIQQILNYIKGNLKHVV
Experiment: HDAC enzyme inhibitory assay (fluorescence), HDAC8
Format: biochemical
Settings: read-out: IC50 (nM) HDAC8
measuredAttribute: IC50 (nM)
Your answer should be a plain number; it is taken to be in nM.

Lab note: CC(C)(C)OC(=O)NCCCC1NC(=O)C2(C)CSC(=N2)c2csc(n2)CNC(=O)CC(C=CCCS)OC1=O (stereo not shown) gave IC50 of 790

====

Molecular target: HDAC3 (Homo sapiens, UniProt O15379)
Sequence (O15379 whole entry, species assumed): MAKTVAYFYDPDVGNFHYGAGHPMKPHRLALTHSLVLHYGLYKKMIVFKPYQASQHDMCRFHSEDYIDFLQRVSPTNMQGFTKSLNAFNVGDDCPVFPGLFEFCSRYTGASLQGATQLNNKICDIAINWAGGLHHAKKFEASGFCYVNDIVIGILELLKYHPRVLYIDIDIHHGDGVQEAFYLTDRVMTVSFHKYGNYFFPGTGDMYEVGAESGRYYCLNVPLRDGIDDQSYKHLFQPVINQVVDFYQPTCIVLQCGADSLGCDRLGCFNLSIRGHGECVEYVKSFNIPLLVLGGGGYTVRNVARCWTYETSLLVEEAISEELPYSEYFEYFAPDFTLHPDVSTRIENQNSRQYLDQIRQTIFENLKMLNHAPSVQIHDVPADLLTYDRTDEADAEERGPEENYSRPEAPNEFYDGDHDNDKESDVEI
Sequence (Q9Y618 395-489 partner limits assumed, species assumed): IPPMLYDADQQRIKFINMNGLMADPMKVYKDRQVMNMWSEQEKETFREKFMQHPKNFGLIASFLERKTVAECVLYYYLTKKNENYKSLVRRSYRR
Experiment: HDAC enzyme inhibitory assay (fluorescence), HDAC3
Assay type: biochemical
measuredAttribute: IC50 (nM)
Give the value in nM but do not write nM after it.

Completed entries (count: 2):
molecule | measuredAttribute | endpointValue
CC12CSC(=N1)c1csc(n1)CNC(=O)CC(C=CCCS)OC(=O)C(Cc1c[nH]cn1)NC2=O (stereo not drawn) [Compound 5] | IC50 | 1.1
CC(C)(C)OC(=O)NCCCC1NC(=O)C2(C)CSC(=N2)c2csc(n2)CNC(=O)CC(C=CCCS)OC1=O (stereo not drawn) [Compound 10] | IC50 | 1.8

Turning now to a further record.
So for CC(C)(C)OC(=O)NCCC1NC(=O)C2(C)CSC(=N2)c2csc(n2)CNC(=O)CC(C=CCCS)OC1=O (stereo not drawn) [Compound 9] , the logged IC50 turned out to be 4.2

Attribution: patent US9815852B2
